Origin of the recorded values: PubChem BioAssay AID1259407

# Tested on: CCRIS mutagenicity, Ames/micronucleus/aberration tests
# experimental_details: CCRIS mutagenicity studies
# experimental_setup: Test System: CHINESE HAMSTER V-79; Strain/Indicator: V-79/OUABAIN; Metabolic Activation: NONE; Method: STANDARD PLATE
Activity calls are given as the source filed them. The rule behind the calls is not given here.
observable: mutagenic call

input: Param item = "CN(C)CCCNc1c2ccccc2nc2cccc([N+](=O)[O-])c12" ; retrieve measured mutagenic call.
output: active; positive

input: Report mutagenic call for "Oc1ccc2ccc3cc4ccccc4c4ccc1c2c34" please.
output: active; positive

input: Query: mutagenic call; subject: CC1(C)C(C=C(Cl)Cl)C1C(=O)OC(C#N)c1cccc(Oc2ccccc2)c1 (stereo not given)
output: inactive; negative

input: Which mutagenic call value is on record for "CC(C)=C[C@H]1[C@@H](C(=O)OCc2coc(Cc3ccccc3)c2)C1(C)C" ?
output: inactive; negative

Let us examine a further case.
input: For the molecule "CN(C)CCCNc1c2ccccc2nc2ccccc12" , what mutagenic call is on record?
output: inactive; negative

----------
# Test system: CCRIS mutagenicity, Ames/micronucleus/aberration tests
# experimental_details: CCRIS mutagenicity studies
# experimental_setup: Test System: AMES SALMONELLA TYPHIMURIUM; Strain/Indicator: TA98; Metabolic Activation: RAT, LIVER, S-9, AROCLOR 1254
Activity calls are given as the source filed them. No rule for the calls is given here.
// allowed return values: T = active, F = inactive

input: Tell me the assay call for CC(C)(Oc1ccc(C2CC2(Cl)Cl)cc1)C(=O)O (stereo unspecified) please.
output: F

input: Identify the outcome logged in this assay for the compound shown: "O=[N+]([O-])c1ccc2ccc3cc4c(c5ccc1c2c35)C=C[C@H](O)[C@H]4O"
output: T

input: I'd appreciate the recorded outcome for "O=[N+]([O-])c1ccc2c(ccc3cc4c(ccc5ccccc54)cc32)c1" from this test.
output: T

input: For "O=[N+]([O-])c1ccc2ccc3cc4ccccc4c4ccc1c2c34" , what call appears in the results of this test?
output: T

input: Could you please tell me the result logged for "CC(=O)Nc1ccc(CC(=O)O)cc1" in this assay?
output: F

Now turn to the next compound.
input: I'd appreciate the recorded outcome for "Nc1ccc2ccc3cc4ccccc4c4ccc1c2c34" from this test.
output: T

----------
# System: CCRIS mutagenicity, Ames/micronucleus/aberration tests
# experimental_details: CCRIS mutagenicity studies
# experimental_setup: Test System: AMES SALMONELLA TYPHIMURIUM; Strain/Indicator: TA100; Metabolic Activation: HAMSTER, LIVER, S-9, AROCLOR 1254 (10%); Method: PREINCUBATION
The source made the active and inactive calls. No rule for the calls is given here.
// classify into active, inactive

input: Test call for this compound, please: CC1CC(OC(=O)c2ccccc2O)CC(C)(C)C1 (centres undefined)
output: inactive

---
input: Called result for "CC(=O)OCc1ccc2c(c1)OCO2"
output: inactive

input: Per the records of this test, what outcome belongs to "CCCCCCCCCCCOC(=O)c1ccccc1C(=O)OCCCCCCCCCCC" ?
output: inactive

input: // param item: "[CH3][Hg+]" ; yields the recorded call
output: inactive

input: How was "O=C(O)c1ccc(S(=O)(=O)N(Cl)Cl)cc1" classified in this test?
output: inactive

input: Hi, sorry to bother you, what did the test record for "O=P(OC(CCl)CCl)(OC(CCl)CCl)OC(CCl)CCl" ?
output: active

input: Which outcome was entered for the compound "CC(C)(C)OOC(C)(C)C" in this test?
output: inactive
